assay.protocol: antibacterial activity against Escherichia coli – OD600, primary screen (AID 1053175)
run.parameters: Escherichia coli growth, OD600, 23 h
The whole screen tested about 330,000 compounds, of which about 700 (0.21%) were called active.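 Rule for the calls: active = OD600 absorbance below the run mean of sample wells minus 3.6 SD, in any replicate (cut at about 0.56 in these data); inactive = the rest.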 Many of the other results were omitted from the sample, so actives are more common in it than they were.
A correct response names exactly one class from Yes = active, No = inactive

1. Cc1cccc(NC(=S)Nc2ccc(Cl)c(Cl)c2)c1 : Yes

Query string: Record request — test call for Cc1cccc(NC(=S)Nc2ccc3cn[nH]c3c2)c1
Result string: No

Query string: Here is the next molecule: CN1CCN(CCC(=O)NN=Cc2cc([N+](=O)[O-])ccc2O)CC1
Result string: No

Query string: Also CC(/C=C/c1ccccc1)=NNc1nc(C)cc(C)n1 , if possible.
Result string: No

Query string: Now try Cc1cc(C(=O)NN=Cc2cccc3ccccc23)c(C)o1 .
Result string: No

Query string: Repeat with CCNC(=S)NN=C(C)c1cc2ccccc2o1
Result string: No
